Sourced from patent US20170037111A1

TARGET_DESC: HLA-A*02:01 (Homo sapiens, UniProt P04439, D140Y/D185E/D98H/E176V/E277Q/G131W/G231S/I119V/I121R/I166T/I218V/L300P/L318F/N151K/N90K/P208A/P217A/Q86G/Q94H/R138H/R169H/T345S)
EXPERIMENT_DESCRIPTION: MHC binding assay (UV-ligand exchange, β2m ELISA, peptide exchange yield)
ASSAY_SETUP: MHC class I binding score; binding to HLA-A*02:01 ranged by peptide exchange yield (UV-ligand exchange, β2m ELISA)

{"columns": ["SUBSTANCE", "Peptide exchange"],
 "data": [
  ["390 (ALFMKQIYL; listed as Homo sapiens) [compound 390]", "″+++″ (≧50% = +++)"],
  ["265 (LLFGGTKTV; listed as Homo sapiens) [compound 265]", "″++″ (≧20% = ++)"],
  ["229 (RLPGPLGTV; listed as Homo sapiens) [compound 229]", "″++″ (≧20% = ++)"],
  ["490 (FLLQHVQEL; listed as Homo sapiens) [compound 490]", "″+++″ (≧50% = +++)"],
  ["296 (FMEGAIIYV; listed as Homo sapiens) [compound 296]", "″+++″ (≧50% = +++)"],
  ["110 (FLSQVDFEL; listed as Homo sapiens) [compound 110]", "″+++″ (≧50% = +++)"],
  ["575 (YLISQVEGHQV; listed as Homo sapiens) [compound 575]", "″+++″ (≧50% = +++)"],
  ["302 (ALLQEGEVYSA; listed as Homo sapiens) [compound 302]", "″+++″ (≧50% = +++)"],
  ["514 (ILVDWLVQV; listed as Homo sapiens) [compound 514]", "″+++″ (≧50% = +++)"],
  ["468 (YLRSVGDGETV; listed as Homo sapiens) [compound 468]", "″+++″ (≧50% = +++)"],
  ["588 (SLLPLSHLV; listed as Homo sapiens) [compound 588]", "″+++″ (≧50% = +++)"],
  ["601 (SAFPFPVTV; listed as Homo sapiens) [compound 601]", "″+++″ (≧50% = +++)"],
  ["217 (ALIHPVSTV; listed as Homo sapiens) [compound 217]", "″++″ (≧20% = ++)"],
  ["476 (ALMERTGYSMV; listed as Homo sapiens) [compound 476]", "″+++″ (≧50% = +++)"],
  ["477 (ALLPASGQIAL; listed as Homo sapiens) [compound 477]", "″+++″ (≧50% = +++)"],
  ["592 (RLLSAAENFL; listed as Homo sapiens) [compound 592]", "″+++″ (≧50% = +++)"]
]}

###

TARGET_DESC: HLA-A*02:01 (Homo sapiens, UniProt P04439, D140Y/D185E/D98H/E176V/E277Q/G131W/G231S/I119V/I121R/I166T/I218V/L300P/L318F/N151K/N90K/P208A/P217A/Q86G/Q94H/R138H/R169H/T345S)
EXPERIMENT_DESCRIPTION: MHC binding assay (UV-ligand exchange, β2m ELISA, peptide exchange yield)
ASSAY_SETUP: MHC class I binding score; binding to HLA-A*02:01 ranged by peptide exchange yield (UV-ligand exchange, β2m ELISA)

{"columns": ["SUBSTANCE", "Peptide exchange"],
 "data": [
  ["157 (SLNDEVPEV; listed as Homo sapiens) [compound 157]", "″++″ (≧20% = ++)"],
  ["579 (NLMEMVAQL; listed as Homo sapiens) [compound 579]", "″++″ (≧20% = ++)"],
  ["152 (ILFEDIFDV; listed as Homo sapiens) [compound 152]", "″+++″ (≧50% = +++)"],
  ["138 (YQYPRAILSV; listed as Homo sapiens) [compound 138]", "″+++″ (≧50% = +++)"],
  ["608 (SLLSVSHAL; listed as Homo sapiens) [compound 608]", "″+++″ (≧50% = +++)"],
  ["334 (TLTKVLVAL; listed as Homo sapiens) [compound 334]", "″+++″ (≧50% = +++)"],
  ["479 (SLFGNSGILENV; listed as Homo sapiens) [compound 479]", "″+++″ (≧50% = +++)"],
  ["266 (KITDTLIHL; listed as Homo sapiens) [compound 266]", "″+++″ (≧50% = +++)"],
  ["211 (LLWPGAALL; listed as Homo sapiens) [compound 211]", "″++″ (≧20% = ++)"],
  ["561 (YLQLTQSEL; listed as Homo sapiens) [compound 561]", "″+++″ (≧50% = +++)"],
  ["107 (FLQPVDDTQHL; listed as Homo sapiens) [compound 107]", "″+++″ (≧50% = +++)"],
  ["133 (KVLSNIHTV; listed as Homo sapiens) [compound 133]", "″++″ (≧20% = ++)"],
  ["455 (SLLKEPQKVQL; listed as Homo sapiens) [compound 455]", "″++″ (≧20% = ++)"],
  ["226 (MLYVVPIYL; listed as Homo sapiens) [compound 226]", "″++″ (≧20% = ++)"],
  ["72 (SLLELDGINL; listed as Homo sapiens) [compound 72]", "″+++″ (≧50% = +++)"],
  ["539 (ALFDAQAQV; listed as Homo sapiens) [compound 539]", "″+++″ (≧50% = +++)"],
  ["163 (ALDEMGDLLQL; listed as Homo sapiens) [compound 163]", "″+++″ (≧50% = +++)"],
  ["27 (ILADIVISA; listed as Homo sapiens) [compound 27]", "″+++″ (≧50% = +++)"],
  ["178 (ALTEIAFVV; listed as Homo sapiens) [compound 178]", "″++++″ (≧75% = ++++)"],
  ["255 (VLASYNLTV; listed as Homo sapiens) [compound 255]", "″+++″ (≧50% = +++)"],
  ["522 (TLWYRSPEV; listed as Homo sapiens) [compound 522]", "″++″ (≧20% = ++)"],
  ["280 (VLPDPEVLEAV; listed as Homo sapiens) [compound 280]", "″+++″ (≧50% = +++)"],
  ["12 (SLWPDPMEV; listed as Homo sapiens) [compound 12]", "″+++″ (≧50% = +++)"],
  ["38 (FLLEDDIHVS; listed as Homo sapiens) [compound 38]", "″+++″ (≧50% = +++)"],
  ["541 (SMLEPVPEL; listed as Homo sapiens) [compound 541]", "″+++″ (≧50% = +++)"],
  ["345 (VIWKALIHL; listed as Homo sapiens) [compound 345]", "″+++″ (≧50% = +++)"],
  ["104 (STMEQNFLL; listed as Homo sapiens) [compound 104]", "″++++″ (≧75% = ++++)"],
  ["274 (SLLFSLFEA; listed as Homo sapiens) [compound 274]", "″++″ (≧20% = ++)"],
  ["177 (YLLPEEYTSTL; listed as Homo sapiens) [compound 177]", "″++++″ (≧75% = ++++)"],
  ["319 (SLEPQIQPV; listed as Homo sapiens) [compound 319]", "″++″ (≧20% = ++)"],
  ["206 (VLQEGKLQKLAQL; listed as Homo sapiens) [compound 206]", "″+++″ (≧50% = +++)"],
  ["521 (MLLTKLPTI; listed as Homo sapiens) [compound 521]", "″+++″ (≧50% = +++)"],
  ["85 (KMSELRVTL; listed as Homo sapiens) [compound 85]", "″+++″ (≧50% = +++)"],
  ["245 (SMIDDLLGV; listed as Homo sapiens) [compound 245]", "″+++″ (≧50% = +++)"],
  ["349 (SLTEYLQNV; listed as Homo sapiens) [compound 349]", "″++++″ (≧75% = ++++)"],
  ["62 (VLLDVSAGQLLM; listed as Homo sapiens) [compound 62]", "″++++″ (≧75% = ++++)"],
  ["15 (VLLTFKIFL; listed as Homo sapiens) [compound 15]", "″++″ (≧20% = ++)"],
  ["324 (FLYDEIEAEV; listed as Homo sapiens) [compound 324]", "″+++″ (≧50% = +++)"]
]}

###

TARGET_DESC: HLA-A*02:01 (Homo sapiens, UniProt P04439, D140Y/D185E/D98H/E176V/E277Q/G131W/G231S/I119V/I121R/I166T/I218V/L300P/L318F/N151K/N90K/P208A/P217A/Q86G/Q94H/R138H/R169H/T345S)
EXPERIMENT_DESCRIPTION: MHC binding assay (UV-ligand exchange, β2m ELISA, peptide exchange yield)
ASSAY_SETUP: MHC class I binding score; binding to HLA-A*02:01 ranged by peptide exchange yield (UV-ligand exchange, β2m ELISA)

{"columns": ["SUBSTANCE", "Peptide exchange"],
 "data": [
  ["370 (SLLQDLVSV; listed as Homo sapiens) [compound 370]", "″+++″ (≧50% = +++)"],
  ["494 (ALQPEPIKV; listed as Homo sapiens) [compound 494]", "″++″ (≧20% = ++)"],
  ["192 (KMLDGASFTL; listed as Homo sapiens) [compound 192]", "″+++″ (≧50% = +++)"],
  ["537 (TLAPGEVLRSV; listed as Homo sapiens) [compound 537]", "″+++″ (≧50% = +++)"],
  ["379 (IMEGTLTRV; listed as Homo sapiens) [compound 379]", "″++″ (≧20% = ++)"],
  ["599 (YLLNDASLISV; listed as Homo sapiens) [compound 599]", "″+++″ (≧50% = +++)"],
  ["386 (ILFRYPLTI; listed as Homo sapiens) [compound 386]", "″+++″ (≧50% = +++)"],
  ["506 (KLLGKVETA; listed as Homo sapiens) [compound 506]", "″+++″ (≧50% = +++)"],
  ["328 (ALNDQVFEI; listed as Homo sapiens) [compound 328]", "″+++″ (≧50% = +++)"],
  ["180 (FQIDPHSGLVTV; listed as Homo sapiens) [compound 180]", "″++″ (≧20% = ++)"],
  ["187 (RQISIRGIVGV; listed as Homo sapiens) [compound 187]", "″+++″ (≧50% = +++)"],
  ["43 (VLSSLEINI; listed as Homo sapiens) [compound 43]", "″++″ (≧20% = ++)"],
  ["40 (TLLVKVFSV; listed as Homo sapiens) [compound 40]", "″+++″ (≧50% = +++)"],
  ["57 (TLAELQPPVQL; listed as Homo sapiens) [compound 57]", "″+++″ (≧50% = +++)"],
  ["589 (KLYPQLPAEI; listed as Homo sapiens) [compound 589]", "″+++″ (≧50% = +++)"],
  ["554 (LLMPSSEDLLL; listed as Homo sapiens) [compound 554]", "″+++″ (≧50% = +++)"],
  ["117 (ILPDGEDFLAV; listed as Homo sapiens) [compound 117]", "″+++″ (≧50% = +++)"],
  ["612 (YLYNEGLSV; listed as Homo sapiens) [compound 612]", "″+++″ (≧50% = +++)"],
  ["354 (LILEGVDTV; listed as Homo sapiens) [compound 354]", "″++″ (≧20% = ++)"],
  ["244 (SLFGGTEITI; listed as Homo sapiens) [compound 244]", "″+++″ (≧50% = +++)"],
  ["518 (KLNAEVACV; listed as Homo sapiens) [compound 518]", "″+++″ (≧50% = +++)"],
  ["397 (YLFGERLLEC; listed as Homo sapiens) [compound 397]", "″+++″ (≧50% = +++)"],
  ["438 (KLLPLAGLYL; listed as Homo sapiens) [compound 438]", "″++++″ (≧75% = ++++)"],
  ["103 (TLAEEVVAL; listed as Homo sapiens) [compound 103]", "″+++″ (≧50% = +++)"],
  ["377 (FLLDSSASV; listed as Homo sapiens) [compound 377]", "″++″ (≧20% = ++)"],
  ["286 (YLFPGIPEL; listed as Homo sapiens) [compound 286]", "″+++″ (≧50% = +++)"],
  ["202 (ALLDQQGSRWTL; listed as Homo sapiens) [compound 202]", "″+++″ (≧50% = +++)"],
  ["289 (VLLEIEDLQV; listed as Homo sapiens) [compound 289]", "″++++″ (≧75% = ++++)"],
  ["301 (FLVEDLVDSL; listed as Homo sapiens) [compound 301]", "″+++″ (≧50% = +++)"],
  ["635 (SLDSTLHAV; listed as Homo sapiens) [compound 635]", "″+++″ (≧50% = +++)"],
  ["285 (QLLHVGVTV; listed as Homo sapiens) [compound 285]", "″+++″ (≧50% = +++)"],
  ["267 (ALQDFLLSV; listed as Homo sapiens) [compound 267]", "″+++″ (≧50% = +++)"],
  ["318 (GLINTGVLSV; listed as Homo sapiens) [compound 318]", "″++″ (≧20% = ++)"],
  ["342 (HIYDKVMTV; listed as Homo sapiens) [compound 342]", "″+++″ (≧50% = +++)"],
  ["210 (LLLNAVLTV; listed as Homo sapiens) [compound 210]", "″++″ (≧20% = ++)"],
  ["124 (ALYETELADA; listed as Homo sapiens) [compound 124]", "″++″ (≧20% = ++)"],
  ["69 (FQLDPSSGVLVTV; listed as Homo sapiens) [compound 69]", "″+++″ (≧50% = +++)"]
]}
